tested on: Marburg virus (MARV); test: organism not typed; assay type: cell-based; conditions: Vero, 72 h, read-out: Percent viral inhibition MARV
Recorded inhibition at 1 µM, one value per entry.
API: value field is a number in %; no unit string.

{"molecule": "CNC(=O)NCC1CCN(Cc2cc(Oc3cnc(N4CCN(C(C)CCS(C)(=O)=O)CC4)nc3)nc(-c3cc(F)cc(Cl)c3)c2)CC1 (stereo not drawn) [Example 373]", "inhibition at 1 µM (%)": 67.8}

Exercise: Which value of inhibition at 1 µM has been reported for CC(CCN1CCN(c2ncc(Oc3cc(CN4CCC(CC(=O)O)CC4)cc(-c4cc(Cl)cc(Cl)c4)n3)cn2)CC1)S(C)(=O)=O (stereo not drawn) [Example 205] in the records?
Key: 77.6

Exercise: Entry CC(O)CCN1CCN(c2cnc(Oc3cc(CN4CCC(CC(=O)O)CC4)cc(-c4cc(Cl)cc(Cl)c4)n3)cn2)CC1 (stereo not drawn) [Example 349] please
Key: 64.5

Exercise: Entry CN1CCN(c2ccc(Oc3cc(CN4CCC5(CC4)CNC(=O)OC5)cc(-c4cc(Cl)cc(Cl)c4)n3)cn2)CC1 [Example 141] please
Key: 66.6

Exercise: Entry CC(=O)NCC1CCN(Cc2cc(Oc3ccc(N4CCN(CCCS(C)(=O)=O)CC4)nc3)nc(-c3cc(Cl)cc(Cl)c3)c2)CC1 [Example 251] please
Key: 38.9

Exercise: Entry CC(CCN1CCN(c2ncc(Oc3cc(CN4CCCC4)cc(-c4cc(Cl)cc(Cl)c4)n3)cn2)CC1)C(=O)O (stereo not drawn) [Example 83] please
Key: 53.8
